These data points were gathered from ChEMBL document CHEMBL3286314.

# Test system: Plasmodium falciparum
# TEST PROTOCOL: Inhibition of falcipain-2-mediated hemoglobin degradation in ring stage Plasmodium falciparum assessed as development of swollen digestive vacuoles at 123 nM after 24 hrs
Activity calls are given as the source filed them. The rule behind the calls is not given here.
In this exercise, the only acceptable responses are active, inactive

Q. GET /call?item= CC(C)CN(NC(=O)C1CCC2(CC1)OOC1(OO2)C2CC3CC(C2)CC1C3)c1nc(C#N)ncc1Br (configuration not stated) returns the recorded outcome of this test.
A. active

Q. What classification did CC(C)CN(NC(=O)C1CCC2(CC1)OOC1(OO2)C2CC3CC(C2)CC1C3)c1cc(Cl)nc(C#N)n1 (configuration not stated) end up with in this test?
A. inactive

Q. Look up the recorded call for CC(C)CN(NC(=O)CC1CCC2(CC1)OOC1(OO2)C2CC3CC(C2)CC1C3)c1nc(C#N)ncc1Br (configuration not stated) in this test.
A. active

Q. Recorded test outcome, item CC(C)CN(NC(=O)C1CCC2(CC1)OOC1(OO2)C2CC3CC(C2)CC1C3)c1nc(C#N)ncc1Cl (configuration not stated)
A. active

Q. Could you kindly confirm the outcome this assay logged for CC(C)CN(NC(=O)C1CCC(=O)CC1)c1nc(C#N)ncc1Br ?
A. active

Q. Write down the call the test reported for this molecule. Item: CC(C)CN(NC(=O)C1CCC2(CC1)OOC1(OO2)C2CC3CC(C2)CC1C3)c1ccnc(C#N)n1 (configuration not stated)
A. inactive

Q. Recorded call for N#Cc1ncc(Br)c(N(NC(=O)C2CCC3(CC2)OOC2(OO3)C3CC4CC(C3)CC2C4)C2CCCCC2)n1 (configuration not stated) ?
A. active

* * *

# TEST PROTOCOL: Cytotoxicity against HEK293T cells
# Format: cell-based, HEK-293T
# PARTICULARS: human
QUANTITY KIND: CC50

Here's what some known entries look like.
CC(C)CN(NC(=O)C1CCC2(CC1)OOC1(OO2)C2CC3CC(C2)CC1C3)c1cc(Cl)nc(C#N)n1 (centres undefined)	> 100 µM
CC(C)CN(NC(=O)C1CCC2(CC1)OOC1(OO2)C2CC3CC(C2)CC1C3)c1nc(C#N)ncc1Cl (centres undefined)	> 100 µM
N#Cc1ncc(Br)c(N(NC(=O)C2CCC3(CC2)OOC2(OO3)C3CC4CC(C3)CC2C4)C2CCCCC2)n1 (centres undefined)	> 100 µM

Q. Report measured CC50; entry is CC(C)CN(NC(=O)C1CCC2(CC1)OOC1(OO2)C2CC3CC(C2)CC1C3)c1ccnc(C#N)n1 (centres undefined)
A. > 100 µM

* * *

# TEST PROTOCOL: Cytotoxicity against mouse NIH/3T3 cells
# Format: cell-based, NIH3T3
QUANTITY KIND: CC50 (µM)
Express your answer in µM, writing the number without its unit.

Q. Fill in reported CC50 for this entry: CC(C)CN(NC(=O)CC1CCC2(CC1)OOC1(OO2)C2CC3CC(C2)CC1C3)c1nc(C#N)ncc1Br (centres undefined)
A. 2.3

Q. Determine its reported CC50: CC(C)CN(NC(=O)C1CCC2(CC1)OOC1(OO2)C2CC3CC(C2)CC1C3)c1nc(C#N)ncc1Br (centres undefined)
A. 8

Q. # return recorded CC50 for input N#Cc1ncc(Br)c(N(CC2CCCC2)NC(=O)C2CCC3(CC2)OOC2(OO3)C3CC4CC(C3)CC2C4)n1 (centres undefined)
A. 5.5
